Target: T1, CD22 (antigen in the Biacore assay) (human, UniProt P20273 20-687, limits assumed)
T1 sequence: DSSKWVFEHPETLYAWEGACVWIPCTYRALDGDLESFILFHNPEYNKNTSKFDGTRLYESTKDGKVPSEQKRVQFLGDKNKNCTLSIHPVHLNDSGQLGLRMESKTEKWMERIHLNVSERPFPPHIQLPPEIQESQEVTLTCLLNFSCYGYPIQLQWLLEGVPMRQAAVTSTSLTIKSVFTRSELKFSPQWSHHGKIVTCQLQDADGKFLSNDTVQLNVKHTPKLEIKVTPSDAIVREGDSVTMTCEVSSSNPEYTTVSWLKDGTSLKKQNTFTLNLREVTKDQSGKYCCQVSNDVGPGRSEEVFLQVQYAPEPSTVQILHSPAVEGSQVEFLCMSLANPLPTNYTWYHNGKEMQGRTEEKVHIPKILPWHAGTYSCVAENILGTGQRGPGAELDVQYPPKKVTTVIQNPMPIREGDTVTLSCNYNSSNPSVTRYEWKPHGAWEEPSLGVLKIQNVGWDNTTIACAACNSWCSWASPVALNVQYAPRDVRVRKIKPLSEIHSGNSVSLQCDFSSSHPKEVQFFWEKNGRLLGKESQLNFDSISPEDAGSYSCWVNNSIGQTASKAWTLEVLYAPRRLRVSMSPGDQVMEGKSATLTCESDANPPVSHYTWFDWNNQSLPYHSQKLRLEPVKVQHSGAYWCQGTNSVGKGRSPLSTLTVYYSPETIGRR
Assay: SPR (Biacore) at 37° C
Measurement name: koff (s⁻¹)
Quick reminder: number only, in s⁻¹, skip the unit.

humanized LL2 L1 + H5 (antibody, V domains shown, Human IgG1 frameworks; also called H5L1) VH: QVQLQESGAEVKKPGASVKVSCKASGYTFTSYWLHWVRQAPGQRLEWIGYINPRNDYTEYSQKFQGRATLTADTSASTAYMELSSLRSEDTAVYYCARRDITTFYWGQGTTLTVSS VL: DIVLTQSPDSLAVSAGERVTMNCKSSQSVLYSANHKNYLAWYQQKPGQPPKLLIYWASTRESGVPDRFSGSGSGTDFTLTISSVQAEDVAIYYCHQYLSSWTFGGGTKLEIK : 4.19e-06

Moving on to the next binder.
Entry humanized LL2 L2 + H1 (antibody, V domains shown, Human IgG1 frameworks; also called H1L2) VH: QVQLVESGAEVKKPGASVKMSCKASGYTFTSYWLHWIRQAPGQRLEWIGYINPRNDYTKYSQKFQGRATITADKSASTAYMELSSLRSEDTAVYYCARRDITTFYWGQGTTLTVSS VL: DIVLTQSPDSLAVSLGERVTMNCKSSQSVLYSANHKNYLAWYQQKPGQSPKLLIYWASTRESGVPDRFSGSGSGTDFTLTISSVQAEDVAIYYCHQYLSSWTFGGGTKLEIK has what koff? 0.00219

Values from patent US20220177581A1
